The origin of these recorded values is the supplement of paper PMC9170038.

system: MS2 coat protein; assay: apparent KD of MS2 coat protein; designed switch direction (-1 OFF switch, 1 ON switch): 1; higher = weaker reporter binding; conditions: input ligand: none
quantity: apparent KD of MS2 coat protein (µM)
Please give a number only; it is taken to be in µM.

## Task Quick one: give measured apparent KD of MS2 coat protein for GCUCGCGGCGCAGGAUAUGGGUGCCUGUACAUGAGGAUCACCCAUGUUAAGGGACGGAAAACGAACCAGAAGGGCGUCGCAAGC [Zaorquor] (Eterna round: R96, puzzle: Same State NG 2)
## Result 0.14

## Task Provide only the value of recorded apparent KD of MS2 coat protein for GUUAGGAAUCUAGCUGACAUGAGGAUCACCCAUGUUAGUGGGAAGGAUAUGGUACAGAAACUGUACCAGAAGGUCUUACUGUCU [MOD Omei's SS(NG) 3 AV9] (Eterna round: R96, puzzle: Same State NG 3)
## Result 0.0259

## Task For CCAUAACAGUGAGGAUAUUGUUGCGAUAAGUGACGAGAAGGCAUUCAUGUGAAAUAAACAUACAUGAGGAUCACCCAUGUUGUA [Omei SS(NG)1 Bv2] (Eterna round: R96, puzzle: Same State NG 1) , write its apparent KD of MS2 coat protein.
## Result 0.0267

## Task Tell me its apparent KD of MS2 coat protein given ACAUGAGACCAAGGAUAUUUUGUACCUACAUGUGACAUGAGGAUCACCCAUGUGGUAAGUAUGAGAAAGAAGGUGGAGAUAUGU [Equivalence 22 - Jieux - Same State NG 2] (Eterna round: R96, puzzle: Same State NG 2) as the entry.
## Result 0.037

## Task Look up and report measured apparent KD of MS2 coat protein for this entry: GAGUGGCAGUUAGGAUAUACAGUGAUAAUGAUAGUAGAAGGAACAGACAUGAGGAUCACCCAUGUAGGACUAAUCCAGAGAGAG [Parity 33 - Jieux - Same State NG 1] (Eterna round: R96, puzzle: Same State NG 1)
## Result 0.0349

## Task Name the recorded apparent KD of MS2 coat protein of the sequence listed here: AAGCUCGUGUGAGGAUAUGCCGCCGUUUCGGCUGCAGAAGGUGCUACGUUACAUGAGGAUCACCCAUGUCUCUGUUGUUUCGUU [salish99_SSNG1_r04_951] (Eterna round: R96, puzzle: Same State NG 1)
## Result 0.0208

## Task Supply measured apparent KD of MS2 coat protein of GUCAGCGAUUGAGGAUAUCACGUCGAUUAGACGUGAGAAGGCGAUCAUAACAUGAGGAUCACCCAUGUAUUACAUGAAGCUGAC [SSNG1/5-A2] (Eterna round: R96, puzzle: Same State NG 1) in your reply.
## Result 0.0271

## Task State its apparent KD of MS2 coat protein for this sequence: GCUCGGACGAUGACCCACAUGAGGAUCACCCAUGUGCGUGGGCAGGAUAUCUAGAUUAAGGAUGUAGAGAAGGGUCGACCGAGC [SameState NG3 #30] (Eterna round: R96, puzzle: Same State NG 3)
## Result 0.386

## Task Specify reported apparent KD of MS2 coat protein for the sequence shown: AGUCCAGCCUGAGCUGGACAAAUGCAAGUACAUGAGGAUCACCCAUGUUCAUGUACAAGCUUUUUGCUCGUCUUAAA [JL zipper 59] (Eterna round: R96, puzzle: Sensor for hsa-mir-208a)
## Result 0.931

---

test system: MS2 coat protein; experiment: apparent KD of MS2 coat protein, switch OFF state (with FMN for OFF switches, without FMN for ON switches); designed switch direction (-1 OFF switch, 1 ON switch): 1; higher = weaker reporter binding; settings: FMN input: 0 or 200 uM; Eterna round: R93 (includes R88 designs)
quantity: apparent KD of MS2 coat protein (µM)
Number in µM, nothing else.

## Task // Input: AGGAAGGAGAGAGAGGAUAUCCAAAGGAAAACAUGAGGAUCACCCAUGUAGAAGGUAGGAAAUUGGGAGAAGGCUCAAGAGACAG [salish99-ss2-126] . Output its apparent KD of MS2 coat protein only.
## Result 0.0495

## Task Indicate the recorded apparent KD of MS2 coat protein value for this sequence: CUGGACAUAGUACAGGAUAUAUGAAUAGUCACAUGAGGAUCACCCAUGUGCAUUUAUAUGCGCACAUAGAAGGGUGGUAGUUAAG [Mat - Same state - Malcolm Mod - D140]
## Result 0.0579

## Task Provide apparent KD of MS2 coat protein value for the following sequence: AAUCCAAAUAGUCAGGAUAUCAAAAAUAAGACAUGAGGAUCACCCAUGUACUUAGUAAAAGUAAAUGAGAAGGGACAGGGUGAAA [JR_SS002_Sub403]
## Result 0.0294

## Task Please report the measured apparent KD of MS2 coat protein for GUCAGGAAGAGAGAGGAUAUCCAAAGGAAAACAUGAGGAUCACCCAUGUAAAAGGUAGGAAAUUGGGAGAAGGCUCAAGAGAGAG [salish99-ss2-095]
## Result 0.0488

## Task Tell me its apparent KD of MS2 coat protein given AUAAAACAUGAGGAUCACCCAUGUAGAAAUAUGGGAGGAUAUACUAGAUCGAAAGAUCUAGUAGAAGGCCUAAAAG [JL Mod of Eli 1] as the entry.
## Result 0.0607

## Task Supply recorded apparent KD of MS2 coat protein for GAGGACAUAGUAUAGGAUAUAUGAAUAAUUACAUGAGGAUCACCCAUGUGCAUUUAUAUGCGAACAUAGAAGGGUGGUAGUUAUC [SameState2 Malc#32] here.
## Result 0.037

---

tested on: K4 kissing-loop RNA reporter; assay: apparent KD of K4 kissing-loop reporter; higher = weaker reporter binding; details: Eterna round: R107; input ligand: theophylline 20 uM
quantity: apparent KD of K4 kissing-loop reporter (nM)
Reply numerically in nM, unit not repeated.

## Task Param request: apparent KD of K4 kissing-loop reporter | system K4 kissing-loop RNA reporter | item AAGGGCGAGGUAACGUGGAUAUCUCGUCGCAAGGAUAUCUGGAAACAGAGAAGGUGCGACAUCACCGGCAGUGAUGUUGCUGGGC
## Result 227

## Task Report value only: apparent KD of K4 kissing-loop reporter, K4 kissing-loop RNA reporter, UGUCUACCGGGAAGGAGCGUGAAUGAUAAUGGAUAUAGUGAUGUUAUAUAUACGAACGAAUCGCAGGUAGGUCGCCCGGAUCCCU [SSArgB.W]
## Result 431

## Task # return apparent KD of K4 kissing-loop reporter for CGAGUGAUGUUCGAAGAGUUGUUAAGCGAUACCAGCUAGGAAACUGGCCCUUGGCAGCGUAAUAAAUAAAUAAAUAAAUGAUCAC [whbob_Ex_Theo_A_th62] , test system: K4 kissing-loop RNA reporter
## Result 456

## Task Specify apparent KD of K4 kissing-loop reporter for GCUAGCAAUGCAGGAUAUUAAAACGAGUGAUGUUCGGUACCGAGGAUGGGAAACCAUCCUCGGUAAUAAGAAGGGCAUUGCUAGC , system K4 kissing-loop RNA reporter.
## Result 211

## Task Report apparent KD of K4 kissing-loop reporter from K4 kissing-loop RNA reporter testing of GAUUUAGAGGCGGCCGCCACUAGUGAUGUUAGUGAUGUUUGAUACUGAAUAUAUCUGCGUGUAGAUAGGACCGGGCCAGAUGGAG [eyerullin]
## Result 184

## Task Give apparent KD of K4 kissing-loop reporter for GUCGGCCGCGCGCAAGCGCGGCCGGCCGAUACCAGCGCGCCGGCGCGCCCUUGGCAGCGGCGCCGAGUGAUGUUCGGCCUGACGU [#2 Same State - Theophylline A Attempt #7 (HarryS)] tested on K4 kissing-loop RNA reporter.
## Result 601

## Task Output reported apparent KD of K4 kissing-loop reporter of the sequence CUCGUGGGUUUGAGAGGGCUUGUGGGAAGUGAGGAUAUUUAGGGAGAAAGAAGGCACUAUAAAAUAUAGUGAUGUUAUAUAAGGG [SSFMNA.M] on K4 kissing-loop RNA reporter.
## Result 751

## Task Report apparent KD of K4 kissing-loop reporter under test system K4 kissing-loop RNA reporter for GAAUGAUAGUAAGGAUAUAGAUAAUCCUUAUAUAUAUCGAGUGAUGUUCGAUGUGGCAAGAUACAUCUAGAAGGUACUGUAAGGU [Same State FMN B GF 16] .
## Result 361

## Task Provide apparent KD of K4 kissing-loop reporter, tested on K4 kissing-loop RNA reporter, for UGAUAGGACAGAAGGAGCGGAAGUGAUGUUUCCUAAAGGAUAAAGGUGUCAAAGACACCCUUCCAGGUAGGUCGCUGUCCUAUCU [ArgBX 16 #Palindromic #SwitchBubble #StaticStem] .
## Result 532

## Task Report value only: apparent KD of K4 kissing-loop reporter, K4 kissing-loop RNA reporter, AAAGGAUCAGAGAGUGAUGUUCUCUAAUAACGAGGACCGGUACGGCCGCCACUCGAAUAGAUCCAAGUCCUACGAAAAGUAGGAC [Omei inspired 8]
## Result 308

## Task Output reported apparent KD of K4 kissing-loop reporter of the sequence CGCUUGCACGGAAGGAGCGUCCAAGCGAGACACGAGUGAUGUUCGUGAUCGACGUAAACUGGACAGGUAGGUCGCCGUGCUUAAU [Eresti] on K4 kissing-loop RNA reporter.
## Result 101

## Task Name the recorded apparent KD of K4 kissing-loop reporter of AGUGAUAUAUGAGGAUAUGGGAUUGUUAAUGAGUUAGUUUUAGUGUUGUUUGGUUAGUGAUGUUAUUUAGAAGGCGUGAGUGAUG [kuktrmullin] , assay system K4 kissing-loop RNA reporter.
## Result 116

## Task Report apparent KD of K4 kissing-loop reporter under test system K4 kissing-loop RNA reporter for AAAGUGUCAGCACGAGUGAUGUUCGACGAUACCAGCCUCGAUAGAGGCCCUUGGCAGCGUAAAAGUCAAGGGCUGGCACAUAAAA [#SwitchBubble 5 #K4Early] .
## Result 494

## Task Report the value of apparent KD of K4 kissing-loop reporter obtained on K4 kissing-loop RNA reporter for UUUGGUUUCUCGGCCGCCACUCGUUGGUUAUGGGCUUCAGGGAUAUAGUGAUGUUAUGUAUAGAAGAGGACCGGGAGAAGGUUUU [ExTryptoB.Du] .
## Result 434

## Task Find apparent KD of K4 kissing-loop reporter for AAUUUUAAUCAUAAAUAAUAAAUAAAUGAUACCAGUAUUUUUUUUUACCCUUGGCAGCGUAUAUAAGGGCAGUGAUGUUGUCAGA [whbob_SS_Theo_A_w60] on K4 kissing-loop RNA reporter and write it down.
## Result 222

## Task Please report apparent KD of K4 kissing-loop reporter with K4 kissing-loop RNA reporter for item UAAGAGGACCACUGCGAGAGUCCUCGAAUACGAGGACCGGUACGGCCGCCACUCGAUAAUUUGUAGUGAUGUUGCAAGUAAGAAU [BrourdMod 7 - Jieux - Same State Tryptophan A] .
## Result 61.9

## Task Report its apparent KD of K4 kissing-loop reporter with K4 kissing-loop RNA reporter as the test system: GGACGCCGGUCGGCCGCCACUCACAGCAGUGAUGUUGCUGAGAAUGUAGCGGAGUGAUGUUCCGAGAGGACCGGGACUGCAGUUU [Same State Tryptophan B GF 9]
## Result 186

## Task Provide apparent KD of K4 kissing-loop reporter, system K4 kissing-loop RNA reporter, entry GGAUAGGAUAGAGGAUAUGGCUUACGCAGAAAUAACUUGUUGUGUUUAUCCAUAGGGAGUGAUGUUCCAGAAGGCUGUCCUAUCG [MatMod 18 - Jieux - Exclusion - FMN B]
## Result 240

## Task For K4 kissing-loop RNA reporter, give apparent KD of K4 kissing-loop reporter of the listed sequence: GGUUUAUAGGAGGAUACCAGUACGGAUAAAGUACGUUAAUAGUAGAGUGAUGUUCUAAAGUACCCUUGGCAGCUUAGAGUGAGUG [ExTheophylB.M]
## Result 182

## Task Under K4 kissing-loop RNA reporter: report apparent KD of K4 kissing-loop reporter of AUUUAGACGAGUGAUGUUCGUGAUUUUUCAGAGGAUAUGCGUAAUAGCAGAAGGCUGUAUUUAUAUAUAUUUUGAUUUUUUUAAA [JR_ExcFMNA_Sub009] .
## Result 82.8

## Task Enter measured apparent KD of K4 kissing-loop reporter, system K4 kissing-loop RNA reporter, for the sequence shown: GCCUUUUUUCGAGCUACAGCUCGAUUUGGUCGAGGACCGGUACGGCCGCCACUCGAAUGAUAGUGAUGUUAUCAUUAUGGCAUAA [JR_ExcTryptoA_Sub023]
## Result 186

## Task Please indicate recorded apparent KD of K4 kissing-loop reporter of GCGCGUCAUGUCAGCGGUGACACUGUCGAUACCAGCGCCGGAAGGCGCCCUUGGCAGCGACGUGCUGGAGUGAUGUUCCAGCGUC [#2 Exclusion - Theophylline A Attempt #21 (HarryS)] measured with K4 kissing-loop RNA reporter.
## Result 130

## Task // fetch apparent KD of K4 kissing-loop reporter for GUUUGCCGGUUCCGGAGUGAUGUUCCGGAUACCAGCAACUUCCUUUGCCCUUGGCAGCCGUAGCUAUACCGGAUGGCAGCUUCAG [Arrexean] ; system: K4 kissing-loop RNA reporter;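 also: bound reporter read as fluorescence of individual clusters on recovered sequencing chips by microscopy, with normalized cluster intensities fitted with a binding model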
## Result 86.7
